Listing of recorded Wheat plant response rating (0-100) by entry.
Test system: wheat (Triticum aestivum)
Assay: Test A postemergence application, visual injury rating 0-100
Type: in vivo
Details: 31 g ai/ha, postemergence, 10 days, 0 = no effect, 100 = complete control
Simply state the number, no unit and no words.

Examples with their reported Wheat plant response rating (0-100) follow.
COC(=O)C1=CCC(NC(=O)C2(C)CN(c3cc(F)cc(F)c3)C(=O)O2)C1 (stereo not drawn) [Compound 21] : 90
COC(=O)C1=CCC(NC(=O)C2(C)CN(c3cc(Cl)cc(Cl)c3)C(=O)O2)C1 (stereo not drawn) [Compound 58] : 60

// moving on: another record for Wheat plant response rating (0-100)
Could you tell me which Wheat plant response rating (0-100) is on file for CCOC(=O)C1CCC(NC(=O)C2(C)CN(c3cc(F)cc(F)c3)C(=O)O2)C1 (stereo not drawn) [Compound 11] ?
80
